This collection of values is drawn from ChEMBL document CHEMBL1144136.

molecular target: Protease (Human immunodeficiency virus 1); experiment: Inhibition of HIV1 protease at 100 uM
Property Measured: inhibition (%)
Give just the number in %; leave the unit off.

Observe how each entry below is paired with its result.
query: Please report the recorded inhibition for C/C=C(/C)C(=O)O[C@H]1[C@H](O)[C@]2(COC(C)=O)[C@H](O)C[C@]3(C)C(=CC[C@@H]4[C@@]5(C)CC[C@H](O[C@@H]6O[C@H](C(=O)O)[C@@H](O[C@@H]7O[C@H](CO)[C@@H](O)[C@H](O)[C@H]7O)[C@H](O)[C@H]6O[C@@H]6O[C@H](CO)[C@@H](O)[C@H](O)[C@H]6O)[C@](C)(CO)[C@@H]5CC[C@]43C)[C@@H]2CC1(C)C .
result: 14.7

query: For the molecule C/C=C(\C)C(=O)O[C@H]1[C@H](O)C(C)(C)C[C@H]2C3=CC[C@@H]4[C@@]5(C)CC[C@H](O[C@@H]6O[C@H](C(=O)O)[C@@H](O[C@@H]7O[C@H](CO)[C@@H](O)[C@H](O)[C@H]7O)[C@H](O)[C@H]6O[C@@H]6O[C@H](CO)[C@@H](O)[C@H](O)[C@H]6O)[C@](C)(CO)[C@@H]5CC[C@@]4(C)[C@]3(C)C[C@@H](O)[C@]21COC(C)=O , what inhibition is on record?
result: 35.2

Pending molecule:
query: // query inhibition value for entry C/C=C(\C)C(=O)O[C@H]1[C@H](O)[C@]2(COC(C)=O)[C@H](O)C[C@]3(C)C(=CC[C@@H]4[C@@]5(C)CC[C@H](O[C@@H]6O[C@H](C(=O)O)[C@@H](O[C@@H]7O[C@H](CO)[C@@H](O)[C@H](O)[C@H]7O)[C@H](O)[C@H]6O[C@@H]6O[C@H](CO)[C@@H](O)[C@H](O)[C@H]6O)[C@](C)(CO)[C@@H]5CC[C@]43C)[C@@H]2CC1(C)C
result: 39
